Target: ABHD6 (Mus musculus (Mouse), UniProt Q8R2Y0)
Sequence (Q8R2Y0 whole entry): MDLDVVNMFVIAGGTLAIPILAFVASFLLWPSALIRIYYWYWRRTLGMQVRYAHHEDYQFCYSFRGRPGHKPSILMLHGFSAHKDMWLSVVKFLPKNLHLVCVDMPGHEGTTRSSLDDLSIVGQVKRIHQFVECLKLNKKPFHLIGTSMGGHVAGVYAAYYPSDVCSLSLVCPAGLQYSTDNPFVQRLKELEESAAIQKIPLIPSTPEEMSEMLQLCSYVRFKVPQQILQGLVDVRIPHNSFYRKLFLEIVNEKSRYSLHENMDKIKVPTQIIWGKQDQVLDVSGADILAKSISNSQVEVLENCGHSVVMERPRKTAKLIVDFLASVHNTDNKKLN
Experiment: In vitro competitive activity-based protein profiling (mouse brain membrane fraction or cell lysates), ABHD6 band
Format: biochemical
Conditions: 1 μM, mouse proteome; read-out: ABHD6 % Inh 1 μM (mouse)
observable: inhibition at 1 µM

Below: 3 compounds and their reported inhibition at 1 µM.
{"columns": ["compound", "recorded_measurement"],
 "data": [
  ["CC1(C)CC2(CCN(C(=O)OC(C(F)(F)F)C(F)(F)F)CC2)CN1Cc1ccc(C(F)(F)F)cc1N1CC2COCC2C1 (stereo not shown) [Example 55]", "< 25%"],
  ["CCN1CCN(c2cc(C(F)(F)F)ccc2CN2CCCC23CCN(C(=O)OC(C(F)(F)F)C(F)(F)F)CC3)CC1 [Example 87]", "< 25%"],
  ["CCc1cc(CN2CCC3(CCN(C(=O)OC(C(F)(F)F)C(F)(F)F)CC3)C2)ccc1F [Example 152]", "≥ 75%"]
]}

As a next step, examine the compound that follows.
Q: inhibition at 1 µM for CC(=O)N1CCN(c2cccc(CN3CCCC34CCN(C(=O)OC(C(F)(F)F)C(F)(F)F)CC4)c2Cl)CC1 [Example 114] ?
Ans: 25 to 75%

----------
Target: ABHD6 (Mus musculus (Mouse))
Experiment: In vitro competitive activity-based protein profiling (mouse brain membrane fraction or cell lysates), ABHD6 band
Assay type: biochemical
Settings: mouse proteome, competitive ABPP
observable: IC50

Below: 3 compounds and their reported IC50.
{"columns": ["smiles_structure", "observable", "recorded_measurement"],
 "data": [
  ["O=C(OC(C(F)(F)F)C(F)(F)F)N1CCC2(CCN(Cc3ccc(C(F)(F)F)c(N4CCCC4)c3)C2)CC1", "IC50", "100 to 1000 nM"],
  ["CS(=O)(=O)N1CCN(c2cc(Cl)ccc2CN2CCCC23CCN(C(=O)OC(C(F)(F)F)C(F)(F)F)CC3)CC1", "IC50", "> 1000 nM"],
  ["CC1(C)CC2(CCN(C(=O)OC(C(F)(F)F)C(F)(F)F)CC2)CN1Cc1cc(Cl)ccc1N1CCOCC1", "IC50", "100 to 1000 nM"]
]}

Q: IC50 for `O=C(OC(C(F)(F)F)C(F)(F)F)N1CCC2(CCN(Cc3ccc(Cl)c(N4CCOCC4)c3)C2)CC1` ?
Ans: 100 to 1000 nM

Q: Now the same for `O=C(OC(C(F)(F)F)C(F)(F)F)N1CCC2(CCCN2Cc2ccc(C(F)(F)F)c(Cl)c2)CC1`
Ans: > 1000 nM

Q: Now the same for `O=C(OC(C(F)(F)F)C(F)(F)F)N1CCC2(CCN(Cc3ccc(C(F)(F)F)c(N4CCOCC4)c3)C2)CC1`
Ans: 100 to 1000 nM

Q: Now the same for `CN1CCC(Oc2cc(CN3CCCC34CCN(C(=O)OC(C(F)(F)F)C(F)(F)F)CC4)cc(C(F)(F)F)c2)CC1`
Ans: > 1000 nM

Q: Now the same for `O=C(OC(C(F)(F)F)C(F)(F)F)N1CCC2(CCCN2Cc2ccc(Cl)cc2N2CCC(F)CC2)CC1`
Ans: > 1000 nM

Q: Now the same for `O=C(OC(C(F)(F)F)C(F)(F)F)N1CCC2(CCN(Cc3ccc(C(F)(F)F)cc3N3CCCC3)C2)CC1`
Ans: > 1000 nM

Q: Now the same for `CC(C)N1CCc2cccc(CN3CCCC34CCN(C(=O)OC(C(F)(F)F)C(F)(F)F)CC4)c2C1`
Ans: > 1000 nM

Q: Now the same for `CS(=O)(=O)NC1CCN(c2cc(Cl)ccc2CN2CCCC23CCN(C(=O)OC(C(F)(F)F)C(F)(F)F)CC3)CC1`
Ans: > 1000 nM

----------
Molecular target: FAAH (Mus musculus (Mouse))
Sequence (O08914 whole entry): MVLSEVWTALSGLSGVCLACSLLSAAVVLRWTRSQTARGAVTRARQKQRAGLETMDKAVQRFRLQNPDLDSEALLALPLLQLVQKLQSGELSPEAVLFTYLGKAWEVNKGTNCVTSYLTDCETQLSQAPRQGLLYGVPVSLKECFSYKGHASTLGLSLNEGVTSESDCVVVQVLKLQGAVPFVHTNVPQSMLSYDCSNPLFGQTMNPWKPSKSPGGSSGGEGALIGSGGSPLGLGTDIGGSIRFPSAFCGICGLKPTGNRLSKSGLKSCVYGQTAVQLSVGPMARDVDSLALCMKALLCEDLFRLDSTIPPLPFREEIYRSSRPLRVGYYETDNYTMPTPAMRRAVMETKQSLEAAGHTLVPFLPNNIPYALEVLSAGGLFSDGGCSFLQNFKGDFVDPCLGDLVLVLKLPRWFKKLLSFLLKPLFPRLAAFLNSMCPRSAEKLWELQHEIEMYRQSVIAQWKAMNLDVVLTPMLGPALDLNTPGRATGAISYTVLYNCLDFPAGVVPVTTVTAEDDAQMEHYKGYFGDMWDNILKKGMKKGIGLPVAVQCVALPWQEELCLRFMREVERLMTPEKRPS
Assay: In vitro competitive activity-based protein profiling (mouse brain membrane fraction or cell lysates), FAAH band
Format: biochemical
Details: mouse
observable: IC50

Q: Give FAAH (Mus musculus (Mouse)) IC50 for `O=C(O)C1CCN(Cc2cc(C(F)(F)F)ccc2CN2CCCC23CCN(C(=O)OC(C(F)(F)F)C(F)(F)F)CC3)CC1`
Ans: > 1000 nM

----------
Biological target: MAGL (Mus musculus (Mouse), UniProt O35678)
Sequence (O35678 whole entry): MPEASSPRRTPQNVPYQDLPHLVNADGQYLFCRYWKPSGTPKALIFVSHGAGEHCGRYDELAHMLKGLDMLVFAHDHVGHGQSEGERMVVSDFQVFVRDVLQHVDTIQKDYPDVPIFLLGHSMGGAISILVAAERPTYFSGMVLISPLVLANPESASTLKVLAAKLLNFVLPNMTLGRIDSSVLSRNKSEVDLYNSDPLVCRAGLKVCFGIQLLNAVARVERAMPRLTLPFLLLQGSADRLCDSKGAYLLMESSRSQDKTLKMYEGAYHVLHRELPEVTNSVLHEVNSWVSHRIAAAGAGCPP
Test: Mouse brain proteomes from inhibitor treated mice (oral gavage, sacrificed 4 h after administration, ABPP analysis)
Format: in vivo, mouse (C57Bl/6J)
Conditions: 5 mg/kg oral gavage
observable: MAGL % Inh 5 mg/kg (mouse)

Below: 4 compounds and their reported MAGL % Inh 5 mg/kg (mouse).
{"columns": ["smiles_structure", "MAGL % Inh 5 mg/kg (mouse)"],
 "data": [
  ["O=C(OC(C(F)(F)F)C(F)(F)F)N1CCC2(CCCN2Cc2ccc(Cl)c(N3CCCC3)c2)CC1", "### (### is ≥75%)"],
  ["CS(=O)(=O)NC1CCN(c2cc(Cl)ccc2CN2CCCC23CCN(C(=O)OC(C(F)(F)F)C(F)(F)F)CC3)CC1", "# (# is <25%)"],
  ["CN(C)C(=O)C1CCN(c2cc(C(F)(F)F)ccc2CN2CCCC23CCN(C(=O)OC(C(F)(F)F)C(F)(F)F)CC3)CC1", "# (# is <25%)"],
  ["Cc1c(CN2CCCC23CCN(C(=O)OC(C(F)(F)F)C(F)(F)F)CC3)cccc1N1CCCCC1", "### (### is ≥75%)"]
]}

As a next step, examine the compound that follows.
Q: Give MAGL (Mus musculus (Mouse), UniProt O35678) MAGL % Inh 5 mg/kg (mouse) for `O=C(O)C1CCN(c2cc(OC(F)(F)F)ccc2CN2CCCC23CCN(C(=O)OC(C(F)(F)F)C(F)(F)F)CC3)CC1`
Ans: ### (### is ≥75%)

----------
Biological target: MAGL (Mus musculus (Mouse), UniProt O35678)
Test: In vitro competitive activity-based protein profiling (mouse brain membrane fraction or cell lysates), MAGL band
Format: biochemical
Details: 1 μM, mouse proteome; read-out: MAGL % Inh 1 μM (mouse)
Entries and their inhibition at 1 µM

{"columns": ["molecule", "inhibition at 1 µM"],
 "data": [
  ["CC1(C)CC2(CCN(C(=O)OC(C(F)(F)F)C(F)(F)F)CC2)CN1Cc1cccc(Cl)c1N1CCOCC1", "> 75%"]
]}

Q: inhibition at 1 µM for `O=C(OC(C(F)(F)F)C(F)(F)F)N1CCC2(CCCN2Cc2cc(OC3CCS(=O)(=O)CC3)cc(C(F)(F)F)c2)CC1` ?
Ans: > 75%

Q: Now the same for `Cc1cc(CN2CCCC23CCN(C(=O)OC(C(F)(F)F)C(F)(F)F)CC3)ccc1C(F)(F)F`
Ans: > 75%

Q: Now the same for `O=C(OC(C(F)(F)F)C(F)(F)F)N1CCC2(CCCN2Cc2ccc(C(F)(F)F)cc2N2CCC(F)(F)CC2)CC1`
Ans: > 75%

Q: Now the same for `Cc1c(CN2CCCC23CCN(C(=O)OC(C(F)(F)F)C(F)(F)F)CC3)cccc1N1CCCCC1`
Ans: > 75%

Q: Now the same for `O=C(OC(C(F)(F)F)C(F)(F)F)N1CCC2(CCN(Cc3c(N4CCCC4)cccc3C(F)(F)F)C2)CC1`
Ans: > 75%

Q: Now the same for `CN1CCN(c2c(Cl)cccc2CN2CC3(CCN(C(=O)OC(C(F)(F)F)C(F)(F)F)CC3)CC2(C)C)CC1`
Ans: > 75%

----------
Target: ABHD6 (Mus musculus (Mouse))
Assay: In vitro competitive activity-based protein profiling (mouse brain membrane fraction or cell lysates), ABHD6 band
Assay type: biochemical
Settings: 1 μM, mouse proteome; read-out: ABHD6 % Inh 1 μM (mouse)
Procedure: In Vitro Competitive Activity-Based Protein Profiling. Proteomes (mouse brain membrane fraction or cell lysates) (50 μL, 1.0 mg/mL total protein concentration) were preincubated with varying concentrations of inhibitors at 37° C. […] Following gel imaging, serine hydrolase activity was determined by measuring fluorescent intensity of gel bands corresponding to MAGL, ABHD6 and FAAH using ImageJ 1.43u software.
Entries and their inhibition at 1 µM

Q: inhibition at 1 µM for O=C(OC(C(F)(F)F)C(F)(F)F)N1CCC2(CCCN2Cc2ccccc2)CC1 [Example 63] ?
Ans: < 25%

Q: Now the same for O=C(O)C1COCCN1c1cc(C(F)(F)F)ccc1CN1CCC2(CCN(C(=O)OC(C(F)(F)F)C(F)(F)F)CC2)C1 (stereo not drawn) [Example 220]
Ans: < 25%

Q: Now the same for COc1ccc(CN2CCCC23CCN(C(=O)OC(C(F)(F)F)C(F)(F)F)CC3)cc1 [Example 1]
Ans: < 25%

Q: Now the same for Cc1ccc(CN2CCC3(CCN(C(=O)OC(C(F)(F)F)C(F)(F)F)CC3)C2)cc1Cl [Example 136]
Ans: ≥ 75%

Q: Now the same for CCc1cc(CN2CCCC23CCN(C(=O)OC(C(F)(F)F)C(F)(F)F)CC3)ccc1F [Example 150]
Ans: < 25%

Q: Now the same for C#Cc1ccc(CN2CCCC23CCN(C(=O)OC(C(F)(F)F)C(F)(F)F)CC3)c(N2CCC(C(=O)O)CC2)c1 [Example 198]
Ans: < 25%

Q: Now the same for O=C(OC(C(F)(F)F)C(F)(F)F)N1CCC2(CCCN2Cc2ccc(C(F)(F)F)cc2N2CCCC2)CC1 [Example 66]
Ans: < 25%

Q: Now the same for CC1(C)CC2(CCN(C(=O)OC(C(F)(F)F)C(F)(F)F)CC2)CN1Cc1cccc(CN2CCOCC2)c1F [Example 191]
Ans: 25 to 75%

Q: Now the same for O=C(OC(C(F)(F)F)C(F)(F)F)N1CCC2(CCCN2Cc2cc(N3CCCC3)cc(C(F)(F)F)c2)CC1 [Example 36]
Ans: < 25%

Q: Now the same for O=C(OC(C(F)(F)F)C(F)(F)F)N1CCC2(CCCN2Cc2cccc(N3CCC(F)(F)CC3)c2Cl)CC1 [Example 111]
Ans: < 25%

Q: Now the same for N#Cc1cc(CN2CCCC23CCN(C(=O)OC(C(F)(F)F)C(F)(F)F)CC3)cc(N2CCC(C(=O)O)CC2)c1 [Example 210]
Ans: < 25%

Q: Now the same for O=C(OC(C(F)(F)F)C(F)(F)F)N1CCC2(CCCN2Cc2cc(Oc3nc4ccccc4s3)cc(C(F)(F)F)c2)CC1 [Example 172]
Ans: < 25%

Q: Now the same for O=C(OC(C(F)(F)F)C(F)(F)F)N1CCC2(CCCN2Cc2ccc(Cl)cc2N2CCCCC2)CC1 [Example 74]
Ans: 25 to 75%

Q: Now the same for O=C(OC(C(F)(F)F)C(F)(F)F)N1CCC2(CCCN2Cc2ccc(N3CCOCC3)c(Cl)c2)CC1 [Example 127]
Ans: 25 to 75%

Q: Now the same for CC1(C)CC2(CCN(C(=O)OC(C(F)(F)F)C(F)(F)F)CC2)CN1Cc1cc(Cl)cc(N2CCOCC2)c1 [Example 186]
Ans: 25 to 75%
